- System under test: UniProt:P43490
- Assay method text: Human recombinant enzyme assay (NMN fluorescence biochemical assay)
- Measurement conditions: concentration that gives half-maximal activation; 6 nM human NAMPT, 60 min
- Procedure: Compounds described herein were assayed for their ability to stimulate the synthesis of nicotinamide mononucleotide (NMN) by the enzyme NAMPT. […] Dose responses were measured using an assay to detect the formation of nicotinamide mono-nucleotide. […] The plates were read for fluorescence (Excitation/Emission=355 nm/460 nm) using an EnVision plate reader after 40 mins of incubation at ambient temperature. […]
Attribute measured: EC50 (nM)
Write down the numeric answer in nM and omit the unit.

Form field EC50 for item Cc1nc(C(=O)NC2(c3ccccn3)CCC2)nc(NCCc2cn[nH]c2)c1C on UniProt:P43490: 22400

Form field EC50 for item Cc1nc(C(=O)N[C@@H](C)c2cccs2)nc(NCCc2cn[nH]c2)c1C on UniProt:P43490: 182

Form field EC50 for item Cc1nc(C(=O)N[C@H](C)c2ccccc2)nc(NCCc2cn[nH]c2)c1C on UniProt:P43490: 549

Form field EC50 for item Cc1nc(C(=O)N2CCC[C@@H]2c2ccccn2)nc(NCCc2cn[nH]c2)c1C on UniProt:P43490: 13400

Form field EC50 for item Cc1nc(C(=O)N[C@H](C)c2ncccc2Cl)nc(NCCc2cn[nH]c2)c1C on UniProt:P43490: 741

Form field EC50 for item COC[C@@H](NC(=O)c1nc(C)c(C)c(NCCc2cn[nH]c2)n1)c1cccc(F)c1 on UniProt:P43490: 3990

Form field EC50 for item Cc1nc(C(=O)N[C@H](C)c2cccc(F)n2)nc(NCCc2cn[nH]c2)c1C on UniProt:P43490: 106

Form field EC50 for item Cc1nc(C(=O)NC(C)(C)c2ccccc2)nc(NCCc2cn[nH]c2)c1C on UniProt:P43490: 550

====

- System under test: human NAMPT (Homo sapiens (Human))
- Sequence (P43490 whole entry): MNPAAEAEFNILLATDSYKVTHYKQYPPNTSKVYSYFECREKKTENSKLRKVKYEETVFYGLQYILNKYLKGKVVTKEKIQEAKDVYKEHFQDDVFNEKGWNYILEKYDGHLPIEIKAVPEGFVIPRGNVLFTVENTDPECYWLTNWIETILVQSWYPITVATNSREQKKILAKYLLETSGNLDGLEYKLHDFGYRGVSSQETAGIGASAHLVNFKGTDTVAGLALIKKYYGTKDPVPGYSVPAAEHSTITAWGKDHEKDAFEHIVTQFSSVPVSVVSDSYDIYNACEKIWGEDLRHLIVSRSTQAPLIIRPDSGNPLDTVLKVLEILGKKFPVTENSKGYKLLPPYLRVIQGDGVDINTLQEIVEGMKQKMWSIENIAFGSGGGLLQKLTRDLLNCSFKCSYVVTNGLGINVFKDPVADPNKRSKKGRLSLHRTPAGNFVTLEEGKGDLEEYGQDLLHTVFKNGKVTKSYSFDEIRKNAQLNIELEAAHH
- Assay method text: Human recombinant enzyme assay (NMN fluorescence biochemical assay)
- Measurement conditions: concentration that gives half-maximal activation; 6 nM human NAMPT, 60 min
Exercise: state measured EC50 for each of the molecules provided.
Write down the numeric answer in µM and omit the unit.

Item: Cc1nc(C(=O)N2C[C@H](c3ccccc3)[C@@H](O)C2)nc(NCCc2cn[nH]c2)c1C | EC50: 2.92

Item: Cc1nc(C(=O)N[C@@H](C)c2ccncc2)nc(NCCc2cn[nH]c2)c1C | EC50: 13.3

Item: Cc1nc(C(=O)N[C@H](C)c2cccc(F)c2)nc(NCCc2cn[nH]c2)c1C | EC50: 1.51

Item: Cc1nc(C(=O)NC(C)c2ccncc2F)nc(NCCc2cn[nH]c2)c1C (centres unmarked) | EC50: 16.2

Item: Cc1nc(C(=O)N2CCOC[C@H]2Cc2ccccc2)nc(NCCc2cn[nH]c2)c1C | EC50: 2.16

Item: Cc1nc(C(=O)N[C@H](C)c2cccnc2)nc(NCCc2cn[nH]c2)c1C | EC50: 60

Item: Cc1nc(C(=O)NCc2cccs2)nc(NCCc2cn[nH]c2)c1C | EC50: 0.499

Item: Cc1nc(C(=O)NC2(c3ccccc3)COC2)nc(NCCc2cn[nH]c2)c1C | EC50: 23.1

Item: Cc1nc(C(=O)NCC(C)(O)c2ccccc2)nc(NCCc2cn[nH]c2)c1C (centres unmarked) | EC50: 11.3

Item: Cc1nc(C(=O)N[C@@H](C)c2cccc(F)c2)nc(NCCc2cn[nH]c2)c1C | EC50: 0.52

Item: Cc1nc(C(=O)N2CCC(C#N)(c3ccccc3)CC2)nc(NCCc2cn[nH]c2)c1C | EC50: 8.51

Item: Cc1nc(C(=O)N2CC(O)(Cc3ccccc3)C2)nc(NCCc2cn[nH]c2)c1C | EC50: 3.75

Item: Cc1nc(C(=O)N(C)[C@@H](C)c2ccccc2Cl)nc(NCCc2cn[nH]c2)c1C | EC50: 1.87

Item: CCC1(O)CN(C(=O)c2nc(C)c(C)c(NCCc3cn[nH]c3)n2)C1 | EC50: 14

Item: Cc1cccnc1[C@@H](C)NC(=O)c1nc(C)c(C)c(NCCc2cn[nH]c2)n1 | EC50: 1.19

Item: Cc1nc(C(=O)NC(c2ccc(F)c(F)c2)c2nccn2C)nc(NCCc2cn[nH]c2)c1C (centres unmarked) | EC50: 26.2

Item: Cc1nc(C(=O)N2CCC[C@@H]2c2ccccc2)nc(NCCc2cn[nH]c2)c1C | EC50: 3.83

// data source = patent US20240067631A1
